These data points were gathered from ChEMBL document CHEMBL1145787.

- protocolSummary: Volume of distribution at steady state of compound was determined in dog at 5 mg/kg intravenously admn.
- Type: ADME, organism-based, Canis lupus familiaris
- Parameters: dose 5 mg/kg, route intravenous
- testParameters: in vivo, iv, read-out: Vdss
quantity: Vd (L/kg)
Answer with a number only, understood to be in L/kg.

(Q) Please look up its Vd: O=C(NO)C1(S(=O)(=O)c2ccc(Oc3ccc(Cl)cc3)cc2)CCN(Cc2ccccc2)CC1
(A) 0.1

###

Observed IC50, system Matrix metalloproteinase-9 (Homo sapiens, UniProt P14780).
Could you give me the number in nM? Just the number is fine.

Completed entries (count: 2):
O=C(NO)C1(S(=O)(=O)c2ccc(Oc3ccc(Cl)cc3)cc2)CCNCC1    2
CCC(CC)Oc1ccc(S(=O)(=O)C2(C(=O)NO)CCN(Cc3ccccc3)CC2)cc1    14

(Q) Query the reported IC50 for Matrix metalloproteinase-9 (Homo sapiens, UniProt P14780); item: O=C(NO)C1(S(=O)(=O)c2ccc(Oc3ccc(Cl)cc3)cc2)CCN(Cc2ccccc2)CC1
(A) 1

(Q) How about this compound: CCCCOc1ccc(S(=O)(=O)C2(C(=O)NO)CCOCC2)cc1
(A) 9.2

(Q) Note, next up: CCCCN1CCC(C(=O)NO)(S(=O)(=O)c2ccc(Oc3ccc(Cl)cc3)cc2)CC1
(A) 1

(Q) Query COc1ccc(S(=O)(=O)C2(C(=O)NO)CCN(Cc3ccc(-c4cccs4)cc3)CC2)cc1 next
(A) 11

(Q) Entry to check: COc1ccc(S(=O)(=O)C2(C(=O)NO)CCN(Cc3ccc(F)cc3)CC2)cc1
(A) 16

(Q) Entry to check: COc1ccc(S(=O)(=O)C2(C(=O)NO)CCN(Cc3ccccc3)CC2)cc1
(A) 10

(Q) Please do the same for COc1ccc(S(=O)(=O)C2(C(=O)NO)CCN(Cc3cccc(OC)c3)CC2)cc1 as well.
(A) 9

(Q) Please answer likewise for COc1ccc(S(=O)(=O)C2(C(=O)NO)CCN(Cc3ccc(-c4ccccc4)cc3)CC2)cc1
(A) 13
